pIC50: −log10 of the molar value.
Reported pIC50, (Homo sapiens).
measured.endpoint: pIC50

Known pIC50 results, listed for orientation:
# molecule, pIC50
measured = [
    ("CC[S+]([O-])c1cnc(S(N)(=O)=O)s1 (stereo not drawn) [5-Ethylsufinyl-2-thiazole sulfonamide, 5-Ethylsulfinyl-2-thiazole sulfonamide]", 7.94),
    ("NS(=O)(=O)c1nc(-c2ccccc2)cs1 [4-Phenyl-2-thiazole sulfonamide]", 7.70),
    ("NS(=O)(=O)c1ncc(Br)s1 [5-Bromo-2-thiazole sulfonamide]", 8.11),
]

(a) Cc1sc(S(N)(=O)=O)nc1-c1ccccc1 [5-Methyl-4-phenyl-2-thiazole sulfonamide]
(b) CCSc1cnc(S(N)(=O)=O)s1 [5-(Ethylthio)-2-thiazole sulfonamide]
(c) NS(=O)(=O)c1cnc(-c2ccccc2)s1 [2-Phenyl-5-thiazole sulfonamide]
(d) COCOCC(=O)c1ncc(S(N)(=O)=O)s1
Could you please order the items by pIC50, going from the lowest number to the highest? Your task in answering is to list the labels in the requested order. a, c, d, b
(a: 7.08, c: 7.70, d: 7.99, b: 8.38)

(A) CCCCC#Cc1cnc(S(N)(=O)=O)s1 [5-(1-Hexynyl)-2-thiazole sulfonamide]
(B) NS(=O)(=O)c1ncc(Cc2ccccc2)s1 [5-Benzyl-2-thiazole sulfonamide]
Please indicate which entry, A or B , has the lower recorded pIC50 value. Pick one and reply with its label. B

----------
pIC50: −log10 of the molar value.
Reported pIC50, (Homo sapiens, UniProt P00918).
measured.endpoint: pIC50

# molecule, assay.value
rows = [
    ("CCS(=O)(=O)c1ncc(S(N)(=O)=O)s1 [2-(Ethylsulfonyl)-5-thiazole sulfonamide, 2-Ethylsulfonyl-5-thiazole sulfonamide]", 8.17),
    ("NS(=O)(=O)c1cnc(S(=O)(=O)c2ccccc2)s1 [2-Phenylsulfonyl-5-thiazole sulfonamide]", 8.26),
    ("NS(=O)(=O)c1ncc(Cl)s1 [5-Chloro-2-thiazole sulfonamide]", 8.23),
]

Cited source: patent US5519040A
